Where these numbers come from: the supplement of paper PMC9732359

- Experiment: protein stability index of a GFP-peptide fusion (yeast GPS) (PSI 1-4); higher = more stable; sorted into four equal gates, so the index is relative within each strain
- Condition Context: pdr5∆
Below, each entry is listed alongside its reported protein stability index.
Endpoint Label: protein stability index

Record Sequence	Reported
GIFNLLNTLFNPVTLNE [NUT1]	1.93
RKRPVPKGATYGKPTNQ [RPL15A]	3.29
QDKEGIPPDQQRLIFAG [RPS31]	2.8
VVDHHVENELLQVDVDI [RRP42]	3.25
LGYARFILLDRLRQFNL [SMC4]	1.8

====

- Experiment: protein stability index of a GFP-peptide fusion (yeast GPS) (PSI 1-4); higher = more stable; sorted into four equal gates, so the index is relative within each strain
- Condition Context: pdr5∆

Record Sequence	protein stability index
VGFLVQLDLTGIFLHGK [PRP8]	1.85
ILIESRIHRLARYYRTV [RPS13]	2.06
HNMKAYYKKFLIEPLPT [BRR2]	1.58
SIMPDLYFYRDPEEVEQ [RPS0A]	2.95

====

- Experiment: protein stability index of a GFP-peptide fusion (yeast GPS) (PSI 1-4); higher = more stable; sorted into four equal gates, so the index is relative within each strain
- Condition Context: san1∆
Output schema: class label derived from protein stability index. Mapping: lower range (below 2), middle range (2 to below 3), upper range (3 or more)

Record Sequence	Class Label
VVEKEKIESLAGGGESD [UBP6]	middle range
SNSNNNGNKDSSFNFNK [SWI1]	upper range
AGNIKCRNDAVNWLAYT [BRR2]	upper range
AISKKNKSLKYVIHGIE [LIN1]	middle range
WKEVLAHNPELERYVKR [RPO31]	upper range
VFLYFEDNAGVIANPKG [RPL23A]	middle range
FRISLGLPVGAIMNCAD [RPL23A]	lower range
SHFDYNTLEFIIEQLSI [YCG1]	middle range
QYVTQIEQEKQEQQEQD [PRE6]	middle range
DHINGSGKRKPTKAAQR [GAL11]	upper range
SPQAVSSFVRQELAKSI [PRE1]	middle range
PTEMEPDLDTECFISMQ [SWI1]	upper range
GKRIAYVYRASKEVRGS [RPL33A]	middle range
PSAGPHKLRESLPLIVF [RPS4A]	lower range
KLYTKELSVTGSAINHH [YMR129W/POM152]	lower range
LGLKFDDLIAEENPIMQ [QCR7]	middle range
TITNSSSSSDIIVPDLI [YML103C/NUP188]	middle range
LKYYQDLKNTRMKSITS [SNF5]	middle range
TTIDSLNAELESKLIPQ [SMC3]	middle range
ADRNDDDEGSFAQENSE [SRB6]	middle range
VIKLAKYPDYFPEWKKS [ARP9]	middle range
KRAKEFITTLLKSLYSF [SIN4]	lower range
FGNIMDNLLEMSDHSLD [RRP6]	lower range
CIFGDAFDVDRAKSCGV [RPL1A]	middle range
INELFKKYTQNNPLLLI [RPN8]	lower range
ALLRVTKSKNKTLIGLQ [POP4]	middle range
ELEFIQSLANIQYVTYL [SOH1]	middle range
IPYAAKLLFQELMAMNI [RPB2]	lower range
GAEVLIKGSKLSLGEAF [COR1]	middle range
EYKKHFPPNLEKGENPS [UBP6]	middle range
TFTKKCLENARSQISEK [SIR4]	upper range
HDIIEGINAGEIEIPEN [RPL12A]	middle range
NYKQLTLVGGGAKITPE [RRP43]	middle range
LAEEVVDNIVNKYQYSL [SRP68]	middle range
CSNNKNSIKNVPPILII [SSN2]	middle range
KPELRKKVMPAIVVRQA [RPL23A]	middle range

====

- Experiment: protein stability index of a GFP-peptide fusion (yeast GPS) (PSI 1-4); higher = more stable; sorted into four equal gates, so the index is relative within each strain
- Condition Context: ubr1∆

Record Sequence	protein stability index
RAGVCEYNEDSRLCTPI [RPN13]	2.84
ASVEIVFHDPDHSMILP [SMC3]	2.65
NDNIGANRSRFNNEAPP [SMB1]	3.01
LKRSTELLETVSLTKRK [YIL149C/MLP2]	1.6
MSSAAEKKPASKAPAEK [HTB2]	2.91
GVNGYIWLRKTSQMDLA [RRP4]	2.9
EEVMRIALMGQDNKKIY [ESC2]	2.64
RANVYVGFLVQLDLTGI [PRP8]	2.45
ILVLALEDLKDVYASKV [PRP8]	2.21
TDGELDIEFINSLLTIV [RPC34]	2.81
QIRDVMERFSVLCNSNI [RRP6]	2.38
MKLVPSIPPATIETFNE [RPB5]	2.57
SESDLDEDKNFPRSRSR [ESC2]	3.28
NVESVGSIPVDQVVVRG [RPB3]	2.23
KYCEIMGDNSQLDFTEF [SNF2]	3.29
NEIKQLGSDSSDGHNSE [SRB4]	3
GEIVSINQINEAHPTKV [RPL20A]	2.77
YMKFSNKYLELCKLASN [RRI2]	1.76
KLSQMILDKIFYGVLDQ [RPN6]	2.86
GRQFCNRLSRIHLYMLT [YLR018C/POM34]	1.8
EYKSLFVVGVDNVSSQQ [RPP0]	3.24
YFRILLPYERHMISQEG [SWI1]	1.6
GVEVRVTPTKTEVIIRA [RPS3]	1.57
LLLTIQLLIIEKEWENA [SRP72]	2.26
EKITQISLLCKNFKGIE [PCI8]	2.5
IVEEDLEPFEASKETAE [FAS2]	3.25
LLEGLNEKIEKRSDLTG [UBP6]	3.32
TKLYFDVNEKIRFRIER [RPC25]	2.92
WTEASSSGAGTVKLYLP [ECM29]	2.02
LGLKFDDLIAEENPIMQ [QCR7]	1.81
NKINSRNSWNFALIDYF [BRN1]	1.1

====

- Experiment: protein stability index of a GFP-peptide fusion (yeast GPS) (PSI 1-4); higher = more stable; sorted into four equal gates, so the index is relative within each strain
- Condition Context: pdr5∆
Could you label it 1 if measured protein stability index is 3 or higher, and 0 otherwise?

Record Sequence	Class Label
MKYIQTEQQIEVPEGVT [RPL9A]	0
KCLVEKSICFENCLNND [SWI1]	0
SSNISPEQVYSLLLTNV [ARP7]	0
MTTFRFCRDCNNMLYPR [RPB9]	1
SNDLDKFFQKKIHLYEK [YGL172W/NUP49]	0
NETSEQLVPIRLEFDQD [SNF5]	1
ESNDRINKIVEILTNQQ [YGR119C/NUP57]	0
QFKKLTHAQRTGLSQIP [PRP8]	0
SGTPTLKKNIEPKKDKE [YOR098C/NUP1]	1
TTRVGGGGAARRQAVDV [RPS5]	0
ALEDEERDEILTLTDSQ [BRR2]	1
YYYYHPMNAPTPAMIPY [DSN1]	0
VQSKARYTVRTFGIRRN [RPL11A]	0
SYRNGMASYMLNSFAFE [YJR042W/NUP85]	0
INSTKNGKDNNNESNKN [MED2]	1
IVFHNEFSEHTFVERLP [DIS3]	0
PRKLVLSSGENRYAFSQ [SMC4]	0
HGTYFLDNMTYSSVAGT [RRP4]	0
VSGDAAALFRLHKFLTK [SWI3]	0
CGLMTVIAKLNHNQFEC [RPB2]	0
PLQSIPEIGNRKINLFY [SWI1]	0
VLRIPEEYLDANVFRLE [MTW1]	1
ECPLDPGGYFIVNGTEK [RET1]	1
AKSNEDKQDGTAKPAFS [YJL041W/NSP1]	1
IVRPAKGVATTREKVLE [RRP46]	0
IKKFAKLHMGTEDVRLA [RPL31B]	1
VQSGQIYINKSVPTNSA [RET1]	1
SVGNLEVVKSLYDRPLK [NAS6]	0
TSPLYMDPGAPLPVETP [SSN2]	0
ALPSTHKVTQKKDIKIG [SIR4]	0

====

- Experiment: protein stability index of a GFP-peptide fusion (yeast GPS) (PSI 1-4); higher = more stable; sorted into four equal gates, so the index is relative within each strain
- Condition Context: ubr1∆
Below, each entry is listed alongside its reported protein stability index.

Record Sequence	protein stability index
GYDINYISKIGEKIDSN [SWI1]	2.91
QVDKVTKEKVNGASVPI [RPL26A]	3.08
KSLEVVNADTVGKTVKQ [NSL1]	3.08
GRVTFIPLNRLSLDSDV [SMC3]	3.09
KRFQVLYPCYFDINRSH [SEC65]	2.06
FITAKDKYKLYPVRIPR [YJR042W/NUP85]	2.89
ESEQELSLHTGFIENCN [MTR3]	2.93
QRCKSNAISLQLKYDTS [YIL149C/MLP2]	1.79
IPYGPDFDNIEFKKIPR [SEC65]	3.17
TMRKISSETDDDHSQVI [DSN1]	3.15
LQLTTNTEQGDSDELGG [SNM1]	3.09
KGETNSEISIIDATLKE [RRP45]	3.19
PEEATTIFSVMVEWLES [PRP8]	1.77
KPSPIDSGIGSNGSGIV [CSL4]	3.1
GKRIAYVYRASKEVRGS [RPL33A]	2.73
MAGSQFENGNITGEDEV [RRP45]	2.95
LEALMDILLCYQKLFSQ [SRB8]	3.05
IDSQMDEASGTPDEDML [GRR1]	3.02
VFSHAQTAVTCESCSTV [RPS27B]	2.04
HADKDTFSSSISTYIST [POP8]	2.69
EGEPVNSPNYFVAKLAA [COR1]	3.14
IIDRGRNVLSASLDGTI [RPN14]	2.77
ENIENEEYVINLLKVSV [ECM29]	3.1
LLKDIFANNLKSAISNN [SIR4]	2.44
MTTFRFCRDCNNMLYPR [RPB9]	2.99
MDKPLNFRILKSFTNDK [SRB5]	3.16
LALETVLIKMVKMLRDN [SIR3]	1.77
CGDSIICNTLNIAKDLK [SMC1]	2.12
LPRYQELTKEEAMYKLQ [SMC3]	3.04
TVALREIRRFQKSTELL [HHT1]	3.02
LAVTNLLIISCIIFITF [YML031W/NDC1]	1.55
IPVGDNTVVGISGDISD [PRE4]	3.02
LAEEKIRAAGGVVELIA [RPL28]	2.93
FGSADDTYPYLTGEWST [FAS1]	1.28
DLEKLLEMSTEDFVKLA [RPS15]	3.28
